Assay: Canine pharmacokinetics of enteric coated formulations at 0.15 mg/kg (T1) and 0.75 mg/kg (T5)
Type: in vivo
Settings: dog, blood, po, 0.15 mg/kg, dogs, oral enteric coated formulation, T1 0.15 mg/kg, Arith. Mean
REPORTED_PROPERTY: half-life (h)
Value expressed in h; do not type the unit.

Ask | Given the entry `CO[C@H]1C[C@@H]2CC[C@@H](C)[C@@](O)(O2)C(=O)C(=O)N2CCCC[C@H]2C(=O)O[C@H]([C@H](C)C[C@@H]2CC[C@@H](O)[C@H](OC)C2)CC(=O)[C@H](C)/C=C(\C)[C@@H](O)[C@@H](OC)C(=O)[C@H](C)C[C@H](C)/C=C/C=C/C=C/1C` , report its measured half-life.
Reply | 16.4
